- Assayed system: D(4) dopamine receptor (Homo sapiens, UniProt P21917)
- Sequence (P21917 whole entry): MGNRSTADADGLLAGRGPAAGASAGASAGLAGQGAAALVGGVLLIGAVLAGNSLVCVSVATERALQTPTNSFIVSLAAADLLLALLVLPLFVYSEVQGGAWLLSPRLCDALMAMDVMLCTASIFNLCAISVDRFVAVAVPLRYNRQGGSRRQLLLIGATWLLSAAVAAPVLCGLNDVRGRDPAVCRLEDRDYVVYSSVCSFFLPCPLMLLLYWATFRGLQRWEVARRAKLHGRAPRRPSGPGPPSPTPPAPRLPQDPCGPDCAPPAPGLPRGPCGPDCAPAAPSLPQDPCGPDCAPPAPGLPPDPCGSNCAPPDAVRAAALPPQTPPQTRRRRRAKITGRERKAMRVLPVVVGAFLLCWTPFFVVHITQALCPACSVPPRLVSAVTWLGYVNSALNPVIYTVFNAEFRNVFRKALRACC
- Assay protocol: Ability to displace [3H]spiperone radioligand from cloned human Dopamine receptor D4 in CHO cells
pKi: −log10 of the molar value.
Readout kind: pKi

Some solved cases for reference:
[
  {
    "Compound": "c1ccc(-c2c[nH]c(CN3CCN(c4ccccc4)CC3)c2)cc1",
    "pKi": 7.92
  },
  {
    "Compound": "c1ccc(N2CCN(Cc3ccc[nH]3)CC2)cc1",
    "pKi": 7.00
  }
]

(1) C(#Cc1c[nH]c(CN2CCN(c3ccccc3)CC2)c1)c1ccccc1
(2) N#Cc1c[nH]c(CN2CCN(c3ccccc3)CC2)c1
(3) C#Cc1c[nH]c(CN2CCN(c3ccccc3)CC2)c1
Request: Rank items: key pKi, increasing. Form field (ranking): labels in requested order.
Response: 1, 2, 3
(1: 7.08, 2: 7.68, 3: 8.23)

---

- Assayed system: D(1A) dopamine receptor (Bos taurus)
- Sequence (Q95136 whole entry): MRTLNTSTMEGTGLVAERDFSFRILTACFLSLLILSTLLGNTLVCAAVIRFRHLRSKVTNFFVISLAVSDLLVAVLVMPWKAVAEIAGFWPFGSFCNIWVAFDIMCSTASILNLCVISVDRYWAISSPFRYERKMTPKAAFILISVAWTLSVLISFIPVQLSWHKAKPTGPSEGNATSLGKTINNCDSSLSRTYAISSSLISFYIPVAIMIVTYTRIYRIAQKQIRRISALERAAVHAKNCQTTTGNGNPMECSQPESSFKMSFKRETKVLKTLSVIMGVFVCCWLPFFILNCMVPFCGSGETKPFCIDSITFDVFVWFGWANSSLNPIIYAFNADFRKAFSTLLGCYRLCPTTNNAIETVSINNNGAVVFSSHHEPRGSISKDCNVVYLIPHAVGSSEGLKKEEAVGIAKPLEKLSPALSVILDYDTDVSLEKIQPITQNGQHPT
- Assay protocol: Ability to displace [3H]SCH-23,390 radioligand from bovine Dopamine receptor D1
pKi: −log10 of the molar value.
Readout kind: pKi

Some solved cases for reference:
[
  {
    "Compound": "c1ccc(N2CCN(Cc3ccc[nH]3)CC2)cc1",
    "pKi": 5.27
  },
  {
    "Compound": "c1ccc(-c2c[nH]c(CN3CCN(c4ccccc4)CC3)c2)cc1",
    "pKi": 5.68
  },
  {
    "Compound": "C(#Cc1c[nH]c(CN2CCN(c3ccccc3)CC2)c1)c1ccccc1",
    "pKi": 5.57
  }
]

(I) C#Cc1c[nH]c(CN2CCN(c3ccccc3)CC2)c1
(II) N#Cc1c[nH]c(CN2CCN(c3ccccc3)CC2)c1
(III) N#Cc1cc(CN2CCN(c3ccccc3)CC2)c[nH]1
Request: Output the entries ranked by pKi from maximum down to minimum. Form field (ranking): labels in requested order.
Response: III, I, II

---

- Assayed system: D(2) dopamine receptor (Homo sapiens, UniProt P14416)
- Sequence (P14416 whole entry): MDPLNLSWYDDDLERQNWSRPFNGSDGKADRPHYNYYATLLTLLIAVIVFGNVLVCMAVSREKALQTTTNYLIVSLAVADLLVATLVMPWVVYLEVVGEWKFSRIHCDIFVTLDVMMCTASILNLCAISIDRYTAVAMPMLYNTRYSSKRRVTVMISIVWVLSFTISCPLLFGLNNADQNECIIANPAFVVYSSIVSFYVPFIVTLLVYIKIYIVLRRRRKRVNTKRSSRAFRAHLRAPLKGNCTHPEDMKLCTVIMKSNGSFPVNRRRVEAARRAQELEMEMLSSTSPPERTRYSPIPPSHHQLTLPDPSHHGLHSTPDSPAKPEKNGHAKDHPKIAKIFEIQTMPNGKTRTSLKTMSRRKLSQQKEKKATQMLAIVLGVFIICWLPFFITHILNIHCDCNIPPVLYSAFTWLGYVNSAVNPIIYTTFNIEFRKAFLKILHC
- Assay protocol: Ability to displace […] radioligand from cloned human Dopamine receptor D2 in CHO cells
- Format: cell-based
Readout kind: Ki (µM)

Some solved cases for reference:
[
  {
    "Compound": "C#Cc1c[nH]c(CN2CCN(c3ccccc3)CC2)c1",
    "Readout kind": "Ki",
    "Quantity unit": "µM",
    "Reported measurement": 0.77
  },
  {
    "Compound": "c1ccc(N2CCN(Cc3ccc[nH]3)CC2)cc1",
    "Readout kind": "Ki",
    "Quantity unit": "µM",
    "Reported measurement": 3.1
  },
  {
    "Compound": "C(#Cc1c[nH]c(CN2CCN(c3ccccc3)CC2)c1)c1ccccc1",
    "Readout kind": "Ki",
    "Quantity unit": "µM",
    "Reported measurement": 0.76
  },
  {
    "Compound": "N#Cc1cc(CN2CCN(c3ccccc3)CC2)c[nH]1",
    "Readout kind": "Ki",
    "Quantity unit": "µM",
    "Reported measurement": 2.4
  }
]

(A) c1ccc(-c2c[nH]c(CN3CCN(c4ccccc4)CC3)c2)cc1
(B) N#Cc1c[nH]c(CN2CCN(c3ccccc3)CC2)c1
Request: Please choose the item with the lower Ki value from this pair: A and B Respond with the label that goes with your answer.
Response: A
(A: 0.23 µM, B: 3.7 µM)

---

- Assayed system: D(3) dopamine receptor (Homo sapiens)
- Sequence (P35462 whole entry): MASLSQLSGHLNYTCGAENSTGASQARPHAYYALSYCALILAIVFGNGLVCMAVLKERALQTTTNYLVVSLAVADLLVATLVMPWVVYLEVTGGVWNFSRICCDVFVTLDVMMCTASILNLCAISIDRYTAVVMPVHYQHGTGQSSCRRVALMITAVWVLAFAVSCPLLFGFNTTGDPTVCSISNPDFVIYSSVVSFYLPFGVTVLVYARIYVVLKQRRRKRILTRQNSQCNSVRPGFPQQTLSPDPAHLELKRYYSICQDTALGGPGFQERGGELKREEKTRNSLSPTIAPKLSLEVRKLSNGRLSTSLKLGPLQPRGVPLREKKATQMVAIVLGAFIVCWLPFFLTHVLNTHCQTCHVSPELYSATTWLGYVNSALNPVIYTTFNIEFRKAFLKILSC
- Assay protocol: Ability to displace [3H]spiperone radioligand from cloned human Dopamine receptor D3 in CHO cells
pKi: −log10 of the molar value.
Readout kind: pKi

Some solved cases for reference:
[
  {
    "Compound": "C(#Cc1c[nH]c(CN2CCN(c3ccccc3)CC2)c1)c1ccccc1",
    "pKi": 6.17
  },
  {
    "Compound": "N#Cc1cc(CN2CCN(c3ccccc3)CC2)c[nH]1",
    "pKi": 6.14
  },
  {
    "Compound": "c1ccc(N2CCN(Cc3ccc[nH]3)CC2)cc1",
    "pKi": 6.24
  },
  {
    "Compound": "c1ccc(-c2c[nH]c(CN3CCN(c4ccccc4)CC3)c2)cc1",
    "pKi": 6.27
  }
]

(1) C#Cc1c[nH]c(CN2CCN(c3ccccc3)CC2)c1
(2) N#Cc1c[nH]c(CN2CCN(c3ccccc3)CC2)c1
Request: Field: entry with larger pKi (options 1 / 2 ). Respond with the label that goes with your answer.
Response: 1
